Source of measurements: paper PMC5707448

List of IC50 values.
# Tested on: HeLa
# procedureText: MTT cytotoxicity assay, HeLa
# Assay type: cell-based, human
# conditionContext: 72 h treatment
Entry rule: numbers only, all in µM.

Here's what some known entries look like.
                                   compound  targetundertest  unitofmeasure  endpointvalue
0  COCCOCCOc1ccc([N+]#[C][Pt-2]23[c]4ccccc4-c4cccc([n+]42)-c2cc[nH][n+]23)cc1.O=S(=O)(O)C(F)(F)F (stereo not drawn)             HeLa             µM           14.4
1  COc1ccc([N+]#[C][Pt-2]23[c]4ccccc4-c4cccc([n+]42)-c2cc[nH][n+]23)cc1.O=S(=O)(O)C(F)(F)F (stereo not drawn)             HeLa             µM            3.8

Lab note: next compound to report on.
Short answer for Cc1cccc(C)c1[N+]#[C][Pt-2]12[c]3ccccc3-c3cccc([n+]31)-c1cc[nH][n+]12.O=S(=O)(O)C(F)(F)F (stereo not drawn) : IC50 was 2.8
